Source listed as patent US9346769B2.

Target: human FASN (Homo sapiens, UniProt P49327)
Construct: was purified from SKBR3 cells using procedures modified from those in Jayakumar et al; endogenous in cells; host or cells: SKBR3 human breast cancer cells (ATCC); Endogenous enzyme purified by ammonium sulfate precipitation and a mono Q column
Sequence (P49327 whole entry): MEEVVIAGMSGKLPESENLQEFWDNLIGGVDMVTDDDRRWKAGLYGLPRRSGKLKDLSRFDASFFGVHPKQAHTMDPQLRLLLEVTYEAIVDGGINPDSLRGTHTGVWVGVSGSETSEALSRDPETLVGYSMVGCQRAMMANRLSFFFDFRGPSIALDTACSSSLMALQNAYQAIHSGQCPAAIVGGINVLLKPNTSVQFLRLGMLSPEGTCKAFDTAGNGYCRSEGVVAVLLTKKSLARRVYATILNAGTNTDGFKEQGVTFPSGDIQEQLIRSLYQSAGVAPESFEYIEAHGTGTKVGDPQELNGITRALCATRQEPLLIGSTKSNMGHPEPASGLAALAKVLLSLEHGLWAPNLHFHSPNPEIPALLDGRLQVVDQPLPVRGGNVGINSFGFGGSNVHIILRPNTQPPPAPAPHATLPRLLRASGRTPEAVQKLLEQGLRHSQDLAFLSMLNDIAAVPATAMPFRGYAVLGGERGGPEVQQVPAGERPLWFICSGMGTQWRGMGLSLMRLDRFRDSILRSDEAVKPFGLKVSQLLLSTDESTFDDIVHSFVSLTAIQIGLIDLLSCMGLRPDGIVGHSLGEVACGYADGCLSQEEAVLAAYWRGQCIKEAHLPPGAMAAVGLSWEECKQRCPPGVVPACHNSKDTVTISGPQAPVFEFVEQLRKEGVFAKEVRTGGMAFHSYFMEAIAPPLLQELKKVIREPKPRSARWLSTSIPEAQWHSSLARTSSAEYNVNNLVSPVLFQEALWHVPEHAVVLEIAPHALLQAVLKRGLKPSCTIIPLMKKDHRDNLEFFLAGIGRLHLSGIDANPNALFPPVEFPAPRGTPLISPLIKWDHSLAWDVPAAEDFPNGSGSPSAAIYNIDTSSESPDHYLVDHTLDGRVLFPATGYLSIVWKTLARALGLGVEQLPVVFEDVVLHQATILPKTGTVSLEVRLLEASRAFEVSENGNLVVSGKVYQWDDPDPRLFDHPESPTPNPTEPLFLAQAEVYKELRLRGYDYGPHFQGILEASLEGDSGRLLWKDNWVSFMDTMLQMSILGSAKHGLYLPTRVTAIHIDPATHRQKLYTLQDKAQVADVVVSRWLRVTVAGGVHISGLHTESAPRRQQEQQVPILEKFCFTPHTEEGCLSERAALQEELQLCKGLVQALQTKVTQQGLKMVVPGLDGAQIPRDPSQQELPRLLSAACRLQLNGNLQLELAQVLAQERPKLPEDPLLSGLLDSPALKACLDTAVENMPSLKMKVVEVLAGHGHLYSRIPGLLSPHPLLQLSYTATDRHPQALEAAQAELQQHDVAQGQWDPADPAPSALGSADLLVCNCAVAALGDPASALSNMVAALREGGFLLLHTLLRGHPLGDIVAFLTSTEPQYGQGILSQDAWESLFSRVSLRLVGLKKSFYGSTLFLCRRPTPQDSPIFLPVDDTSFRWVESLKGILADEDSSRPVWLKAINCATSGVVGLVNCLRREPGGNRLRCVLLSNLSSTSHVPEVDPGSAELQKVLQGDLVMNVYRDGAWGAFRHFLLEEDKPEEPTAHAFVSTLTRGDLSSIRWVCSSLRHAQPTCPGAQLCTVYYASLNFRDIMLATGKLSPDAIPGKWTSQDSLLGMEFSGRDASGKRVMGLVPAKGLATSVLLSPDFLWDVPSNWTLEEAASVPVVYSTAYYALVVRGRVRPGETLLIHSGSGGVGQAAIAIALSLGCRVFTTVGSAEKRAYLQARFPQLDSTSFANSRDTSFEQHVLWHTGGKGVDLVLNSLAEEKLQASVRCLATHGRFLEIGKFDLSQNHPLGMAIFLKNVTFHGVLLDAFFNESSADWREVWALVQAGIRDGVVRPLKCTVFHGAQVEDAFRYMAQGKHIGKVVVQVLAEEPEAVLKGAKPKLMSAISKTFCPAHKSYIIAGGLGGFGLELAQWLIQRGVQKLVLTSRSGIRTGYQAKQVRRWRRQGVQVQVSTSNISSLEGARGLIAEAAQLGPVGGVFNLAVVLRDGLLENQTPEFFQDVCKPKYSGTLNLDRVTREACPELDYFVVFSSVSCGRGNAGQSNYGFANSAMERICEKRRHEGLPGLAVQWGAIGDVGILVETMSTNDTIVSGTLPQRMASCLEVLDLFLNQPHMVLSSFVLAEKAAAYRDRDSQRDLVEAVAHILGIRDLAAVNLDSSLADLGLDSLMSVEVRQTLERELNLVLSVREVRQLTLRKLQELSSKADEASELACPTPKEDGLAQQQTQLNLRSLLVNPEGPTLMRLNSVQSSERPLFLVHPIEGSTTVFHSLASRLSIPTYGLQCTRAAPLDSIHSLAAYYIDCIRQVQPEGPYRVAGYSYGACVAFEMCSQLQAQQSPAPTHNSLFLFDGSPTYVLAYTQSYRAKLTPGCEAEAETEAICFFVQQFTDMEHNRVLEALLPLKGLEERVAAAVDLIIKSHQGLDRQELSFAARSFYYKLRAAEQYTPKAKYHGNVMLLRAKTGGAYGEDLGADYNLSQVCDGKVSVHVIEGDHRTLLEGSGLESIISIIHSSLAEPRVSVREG
Assay: FASN Scintillation Proximity Flashplate Assay
Type: biochemical
Conditions: human FASN purified from SKBR3 cells; unstarred symbols
Procedure: Human FASN protein (SEQ ID NO. 1) was purified from SKBR3 cells using procedures modified from those in Jayakumar et al. PNAS 1995, 92:8695-8699. SKBR3 cells were obtained from ATCC and grown in DMEM high glucose medium supplemented with 10% FBS, 1 μg/mL bovine pancreas insulin, 100 U/mL penicillin and 100 µg/mL streptomycin. […] Each fraction was analyzed by SDS-PAGE and FASN NADPH consumption assay. […]

{"query smiles": "CC(C)(C)OC(=O)N1CCN(c2ccc(N(C(=O)n3nnn(-c4c(F)cccc4F)c3=O)C3CCCCC3)cc2C(=O)OCc2ccccc2)CC1", "system": "human FASN (Homo sapiens, UniProt P49327)", "IC50": "< 15 nM"}
{"query smiles": "CCN(C(=O)n1nnn(-c2c(F)cccc2OC)c1=O)c1ccc(OC)c(C(=O)O)c1", "system": "human FASN (Homo sapiens, UniProt P49327)", "IC50": "15 to 100 nM"}
{"query smiles": "CC(C)N(C(=O)n1nnn(-c2c(F)cccc2F)c1=O)c1ccc(Cl)c(C(=O)O)c1", "system": "human FASN (Homo sapiens, UniProt P49327)", "IC50": "< 15 nM"}
{"query smiles": "COc1cc(OC)c(N(C(=O)n2nnn(-c3c(F)cccc3F)c2=O)C(C)C)cc1C(=O)O", "system": "human FASN (Homo sapiens, UniProt P49327)", "IC50": "15 to 100 nM"}
{"query smiles": "COc1cccc(F)c1-n1nnn(C(=O)N(c2cccc(C(=O)O)c2)C(C)(C)C)c1=O", "system": "human FASN (Homo sapiens, UniProt P49327)", "IC50": "200 to 5000 nM"}
{"query smiles": "COc1ccc(N(C(=O)n2nnn(-c3c(F)cccc3OC(C)C)c2=O)C2CCCCC2)cc1C(=O)O", "system": "human FASN (Homo sapiens, UniProt P49327)", "IC50": "< 15 nM"}
{"query smiles": "O=C(O)c1ccc(N(C(=O)n2nnn(-c3c(F)cccc3F)c2=O)C2CCCCC2)c(Oc2ccccc2)c1", "system": "human FASN (Homo sapiens, UniProt P49327)", "IC50": "< 15 nM"}
{"query smiles": "COCCOc1ccc(N(C(=O)n2nnn(-c3c(F)cccc3F)c2=O)C2CCCCC2)cc1C(=O)O", "system": "human FASN (Homo sapiens, UniProt P49327)", "IC50": "< 15 nM"}
{"query smiles": "O=C(NCc1ccccc1)c1cccc(N(C(=O)n2nnn(-c3c(F)cccc3F)c2=O)C2CCCCC2)c1", "system": "human FASN (Homo sapiens, UniProt P49327)", "IC50": "< 15 nM"}
{"query smiles": "COc1ccc(N(C(=O)n2nnn(-c3c(F)cccc3C(=O)N(C)C)c2=O)C(C)C)cc1C(=O)O", "system": "human FASN (Homo sapiens, UniProt P49327)", "IC50": "200 to 5000 nM"}
{"query smiles": "COc1cccc(F)c1-n1nnn(C(=O)N(c2cccc(C(=O)OCc3ccccc3)c2)C(C)(C)C)c1=O", "system": "human FASN (Homo sapiens, UniProt P49327)", "IC50": "200 to 5000 nM"}
{"query smiles": "CS(=O)(=O)N1CCN(c2ccc(N(C(=O)n3nnn(-c4c(F)cccc4F)c3=O)C3CCCCC3)cc2C(=O)O)CC1", "system": "human FASN (Homo sapiens, UniProt P49327)", "IC50": "< 15 nM"}
{"query smiles": "COc1ccc(N(C(=O)n2nnn(-c3c(F)cccc3OC)c2=O)C2CCCC2)cc1C(=O)OCc1ccccc1", "system": "human FASN (Homo sapiens, UniProt P49327)", "IC50": "< 15 nM"}
{"query smiles": "CCCCOc1ccc(C(=O)O)cc1N(CC)C(=O)n1nnn(-c2c(F)cccc2F)c1=O", "system": "human FASN (Homo sapiens, UniProt P49327)", "IC50": "< 15 nM"}
{"query smiles": "CCN(C(=O)n1nnn(-c2c(F)cccc2F)c1=O)c1ccc(NC(C)=O)cc1F", "system": "human FASN (Homo sapiens, UniProt P49327)", "IC50": "< 15 nM"}
{"query smiles": "O=C(O)c1ccc(N(C(=O)n2nnn(-c3c(F)cccc3F)c2=O)C2CCCCC2)cn1", "system": "human FASN (Homo sapiens, UniProt P49327)", "IC50": "< 15 nM"}
{"query smiles": "CCN(C(=O)n1nnn(-c2c(Cl)cccc2Cl)c1=O)c1ccc(C(=O)O)cc1", "system": "human FASN (Homo sapiens, UniProt P49327)", "IC50": "< 15 nM"}
{"query smiles": "COc1ccc(N(C(=O)n2nnn(-c3ccccc3C#N)c2=O)C2CCCCC2)cc1C(=O)O", "system": "human FASN (Homo sapiens, UniProt P49327)", "IC50": "100 to 200 nM"}
{"query smiles": "COc1cccc(F)c1-n1nnn(C(=O)N(CC(C)(C)C)c2cccc(C(=O)O)c2)c1=O", "system": "human FASN (Homo sapiens, UniProt P49327)", "IC50": "200 to 5000 nM"}
{"query smiles": "CCCN(C(=O)n1nnn(-c2ccccc2Cl)c1=O)C1CCCC1", "system": "human FASN (Homo sapiens, UniProt P49327)", "IC50": "200 to 5000 nM"}
{"query smiles": "CCN(C(=O)n1nnn(-c2c(F)cccc2F)c1=O)c1ccccc1F", "system": "human FASN (Homo sapiens, UniProt P49327)", "IC50": "< 15 nM"}
{"query smiles": "O=C(O)COc1ccc(N(C(=O)n2nnn(-c3c(F)cccc3F)c2=O)C2CCCCC2)cc1", "system": "human FASN (Homo sapiens, UniProt P49327)", "IC50": "< 15 nM"}
{"query smiles": "COc1ccc(N(C(=O)n2nnn(-c3c(F)cccc3C(=O)N3CCCCC3)c2=O)C(C)C)cc1C(=O)O", "system": "human FASN (Homo sapiens, UniProt P49327)", "IC50": "15 to 100 nM"}
{"query smiles": "CCCN(CC1CC1)C(=O)n1nnn(-c2ccccc2Cl)c1=O", "system": "human FASN (Homo sapiens, UniProt P49327)", "IC50": "200 to 5000 nM"}
{"query smiles": "COc1ccc(N(C(=O)n2nnn(-c3c(F)cccc3C(=O)O)c2=O)C(C)C)cc1C(=O)OCc1ccccc1", "system": "human FASN (Homo sapiens, UniProt P49327)", "IC50": "15 to 100 nM"}
{"query smiles": "CCN(C(=O)n1nnn(-c2c(Cl)cccc2Cl)c1=O)c1ccc(OC)cc1", "system": "human FASN (Homo sapiens, UniProt P49327)", "IC50": "15 to 100 nM"}
{"query smiles": "CCN(C(=O)n1nnn(-c2c(F)cccc2C(=O)NCc2ccccc2)c1=O)c1ccccc1", "system": "human FASN (Homo sapiens, UniProt P49327)", "IC50": "< 15 nM"}
{"query smiles": "CCN(C(=O)n1nnn(-c2c(F)cccc2OC)c1=O)c1ccccc1OCCc1ccccc1", "system": "human FASN (Homo sapiens, UniProt P49327)", "IC50": "< 15 nM"}
{"query smiles": "CCN(C(=O)n1nnn(-c2c(F)cccc2F)c1=O)c1c(F)cccc1F", "system": "human FASN (Homo sapiens, UniProt P49327)", "IC50": "< 15 nM"}
{"query smiles": "COc1ccc(N(C(=O)n2nnn(-c3c(F)cccc3C(=O)N(C)Cc3ccccc3)c2=O)C(C)C)cc1C(=O)O", "system": "human FASN (Homo sapiens, UniProt P49327)", "IC50": "< 15 nM"}
{"query smiles": "CCN(C(=O)n1nnn(-c2c(Cl)cccc2Cl)c1=O)c1ccc(C(=O)O)c(Cl)c1", "system": "human FASN (Homo sapiens, UniProt P49327)", "IC50": "< 15 nM"}
{"query smiles": "COc1ccc(N(C(=O)n2nnn(-c3c(F)cccc3F)c2=O)C(C)C)cc1C(=O)O", "system": "human FASN (Homo sapiens, UniProt P49327)", "IC50": "< 15 nM"}
{"query smiles": "COc1ccc(N(C(=O)n2nnn(-c3c(F)cccc3F)c2=O)C2CCCCC2)cc1C(=O)N(C)C", "system": "human FASN (Homo sapiens, UniProt P49327)", "IC50": "< 15 nM"}
{"query smiles": "COc1ccc(N(C(=O)n2nnn(-c3c(F)cccc3C(=O)N(C)C)c2=O)C(C)C)cc1C(=O)OCc1ccccc1", "system": "human FASN (Homo sapiens, UniProt P49327)", "IC50": "< 15 nM"}
{"query smiles": "CN(C)N(C(=O)n1nnn(-c2ccccc2Br)c1=O)C1=CCCC1", "system": "human FASN (Homo sapiens, UniProt P49327)", "IC50": "15 to 100 nM"}
{"query smiles": "COc1ccc(COC(=O)c2cc(N(C(=O)n3nnn(-c4c(F)cccc4OC)c3=O)C(C)C)ccc2OCCc2ccccc2)cc1", "system": "human FASN (Homo sapiens, UniProt P49327)", "IC50": "< 15 nM"}
